B1: TOR1AIP2 (parent)
chain: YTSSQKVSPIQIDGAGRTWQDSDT

# Variants of: B1
# ASSAY SUMMARY: protein stability index of a GFP-peptide fusion (GPS, HEK-293T) (PSI 1-6); higher = more stable;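 further: lentivirally expressed fusions sorted by FACS into six bins by GFP to DsRed ratio, PSI derived from sequencing read proportions per bin multiplied by bin number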
# CONDITION PARAMETERS: c terminus: a fixed tail appended
Classification field: enter 1 for protein stability index values not below 3, -1 for values below it.

Hello, I need to know if S8W has measured protein stability index not below 3. Thanks!
1

Hello, I need to know if D23R has measured protein stability index not below 3. Thanks!
-1

Hello, I need to know if A15F has measured protein stability index not below 3. Thanks!
-1

Hello, I need to know if Q5T has measured protein stability index not below 3. Thanks!
1

Hello, I need to know if S8K has measured protein stability index not below 3. Thanks!
1

Hello, I need to know if S4D has measured protein stability index not below 3. Thanks!
1

Hello, I need to know if I10N has measured protein stability index not below 3. Thanks!
1

Hello, I need to know if T2F has measured protein stability index not below 3. Thanks!
1

Hello, I need to know if Q5M has measured protein stability index not below 3. Thanks!
1

Hello, I need to know if T18D has measured protein stability index not below 3. Thanks!
1

Hello, I need to know if S3K has measured protein stability index not below 3. Thanks!
1

Hello, I need to know if S22R has measured protein stability index not below 3. Thanks!
1

Hello, I need to know if A15T has measured protein stability index not below 3. Thanks!
1

Hello, I need to know if Q20C has measured protein stability index not below 3. Thanks!
1

Hello, I need to know if K6F has measured protein stability index not below 3. Thanks!
1

Hello, I need to know if K6L has measured protein stability index not below 3. Thanks!
-1

Hello, I need to know if Y1N has measured protein stability index not below 3. Thanks!
1

Hello, I need to know if S3R has measured protein stability index not below 3. Thanks!
1

Hello, I need to know if Y1H has measured protein stability index not below 3. Thanks!
1

Hey, just so you know, these numbers are from the supplement of paper PMC10567573.
